tested on: K-562 leukemia; assay: NCI tumour cell line growth inhibition, 48 h
Measured metric: TGI (µM)
One number for each entry, in µM.

Example entries begin here.
INSERT INTO results (compound, measured_metric, result) VALUES
  ('Clc1ccc(C2C3COc4ccccc4C3=NN2c2ccccc2)cc1 (stereo unspecified)', 'TGI', 21.9),
  ('CC(=O)c1[nH]c(NCc2ccccc2)c(C(=S)Nc2ccccc2)c1N', 'TGI', 76.1);

Briefly, TGI measured for O=C1CCCC1CN1CCCC1 (stereo unspecified) : 1.18

* * *

system: SN12C renal; assay: NCI tumour cell line growth inhibition, 48 h
For each entry below, report its TGI value.

Example entries begin here.
INSERT INTO results (compound, result) VALUES
  ('C#C[C@]1(O)CCC2C3CCc4cc(O)ccc4C3CC[C@@]21C (some centres not stated)', '37.6 µM'),
  ('CN=C(N=Nc1c(O)[nH]c2ccccc12)SCC(=O)c1ccc(Br)cc1', '> 48.7 µM'),
  ('O=C(Oc1ccccn1)c1cc2cc(CCl)ccc2oc1=O', '56.7 µM'),
  ('CC(OC(C)(C)C)[C@H](NC(=O)OCC(Cl)(Cl)Cl)C(=O)O (some centres not stated)', '> 100 µM'),
  ('[Cl][Hg][c]1cc[c]([Hg][Cl])o1', '12.9 µM'),
  ('CNCC#Cc1c(F)ccc2c1/C(=C/c1[nH]ccc1OC)C(=O)N2', '2.86 µM');

Briefly, TGI measured for `CCOC(=O)CN1C(=O)c2ccc(NC(=O)C(=O)O)cc2S1(=O)=O` : > 100 µM
